The measured values listed here are drawn from the Human Domainome abundance scans (Beltran et al. 2025).

B1: F-BAR and double SH3 domains protein 1, residues 467 to 528; numbered along this chain, Q86WN1 (parent)
chain: RALPCPAHVVFRYQAGREDELTITEGEWLEVIEEGDADEWVKARNQHGEVGFVPERYLNFPD

# Variants of: B1
# EXPERIMENTAL_DETAILS: abundance fitness (aPCA) (normalised: wild type 0, dead -1); higher = more abundant; growth selection in yeast, the domain comes from the species named
# RECORDED_CONDITIONS: Homo sapiens
VALUE_KIND: abundance fitness
Answers are plain numbers.

Field: example entries. Status: answers known.
{"MUTANT_DESIGNATION": "K42I", "VALUE_KIND": "abundance fitness", "TEST_VALUE": 0.092}
{"MUTANT_DESIGNATION": "A15K", "VALUE_KIND": "abundance fitness", "TEST_VALUE": -0.125}

Consider the following items and state reported abundance fitness for each.
1. V31S
2. G16M
3. E18F
4. G35I

[-0.683, 0.026, -0.28, -0.232]

Consider the following items and state reported abundance fitness for each.
1. I23W
2. P4K
3. W28P

1: -0.572; 2: -0.359; 3: -0.113

Consider the following items and state reported abundance fitness for each.
1. A7Q
2. G35E
3. L21M
4. D38M
5. V10C
6. R12F
7. W40S

1. -0.854
2. -0.407
3. -0.198
4. -0.17
5. -0.037
6. -0.01
7. -0.25
